Biological target: Tyrosyl-DNA phosphodiesterase 1 (Homo sapiens, UniProt Q9NUW8)
Sequence (Q9NUW8 whole entry): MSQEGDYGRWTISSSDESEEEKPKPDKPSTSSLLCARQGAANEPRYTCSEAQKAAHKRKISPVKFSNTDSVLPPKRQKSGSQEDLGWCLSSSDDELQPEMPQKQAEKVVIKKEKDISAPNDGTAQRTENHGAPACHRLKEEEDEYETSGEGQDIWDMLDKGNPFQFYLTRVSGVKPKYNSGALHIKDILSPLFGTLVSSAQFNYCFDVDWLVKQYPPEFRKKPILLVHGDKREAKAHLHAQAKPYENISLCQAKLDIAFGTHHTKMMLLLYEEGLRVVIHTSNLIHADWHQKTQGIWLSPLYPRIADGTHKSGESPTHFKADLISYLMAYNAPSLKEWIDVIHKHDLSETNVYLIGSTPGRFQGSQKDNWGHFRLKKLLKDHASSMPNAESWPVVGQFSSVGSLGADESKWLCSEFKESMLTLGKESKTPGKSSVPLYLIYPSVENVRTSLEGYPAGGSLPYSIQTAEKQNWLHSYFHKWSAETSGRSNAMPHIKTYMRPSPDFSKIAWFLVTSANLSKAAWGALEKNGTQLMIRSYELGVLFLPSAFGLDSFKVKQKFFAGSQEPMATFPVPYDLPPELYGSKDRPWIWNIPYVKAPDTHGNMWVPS
Assay: Inhibition of recombinant TPD1 (unknown origin) activity using 3'-phosphotyrosine-containing 5'-[32P]-labeled single-stranded DNA oligonucleotide by PAGE assay
pIC50: −log10 of the molar value.
measurement-kind: pIC50

O=C1c2ccccc2-c2c1c1ccc(I)cc1c(=O)n2C[C@H](O)CO: < 3.95

---

Test: Growth inhibition of human NCI60 cells assessed as cell growth at 10 uM
Format: functional
Settings: read-out: Activity
measurement-kind: growth at 10 µM

O=C1c2ccccc2-c2c1c1ccc(F)cc1c(=O)n2CCCn1ccnc1: -8.15%
COC(=O)c1ccc2c3c(n(CCCn4ccnc4)c(=O)c2c1)-c1ccccc1C3=O: 62.1%
O=C1c2ccccc2-c2c1c1ccc(Br)cc1c(=O)n2CCCn1ccnc1: 27.3%
N#Cc1ccc2c3c(n(CCCn4ccnc4)c(=O)c2c1)-c1ccccc1C3=O: 41.1%
O=C1c2ccccc2-c2c1c1ccc(I)cc1c(=O)n2CCCn1ccnc1: 43.5%
